- measurementTarget: T1, SH3 domain of collybistin (CB-SH3) (mouse (murine), UniProt Q3UTH8 4-72)
- T1 construct: collybistin (CB1, ARHGEF9), murine, residues 4-72, encompassing the complete SH3 domain (residues 8-67); said to be identical to the SH3 domain of the human CB isoform hPEM-2; pGEX vector construct provided by T. Soykan (Brose lab); also called collybistin SH3; source: E. coli, purified (GST tag, in-situ thrombin cleavage, Superdex 200 SEC); not shown: GST, N-terminal, cleaved
- T1 sequence (looked up): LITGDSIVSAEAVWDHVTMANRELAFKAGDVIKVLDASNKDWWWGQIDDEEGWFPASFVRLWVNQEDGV
- methodDescription: ITC; CB-SH3 titrated against the GABAAR α-subunit loops and truncated α2 constructs; purified proteins
- conditionContext: both partners purified
reportedProperty: Kd

QNNAYAVAVANYAPN (GABA-A receptor subunit alpha-2, stretch of the large cytoplasmic loop) [GABAAR-α2 loop fragment α2-min1] ... > 500 µM

Next, consider the following binder.
Q: Data request, read-out Kd, for KGSVMIQNNAYAVAVANYAPNL (GABA-A receptor subunit alpha-2, stretch of the large cytoplasmic loop) [GABAAR-α2 loop fragment α2-min2]
Result: > 500 µM
